// provenance: ChEMBL document CHEMBL3045776

Tested on: Candida albicans
Assay: Antifungal activity against Candida albicans at 500 ug/disk after 72 hr by disk diffusion method
Assay type: functional
Conditions: read-out: IZ
The entries below come with measured zone of inhibition at 500 µg/disc values attached.
Reported Metric: zone of inhibition at 500 µg/disc

molecule_smiles=COc1ccc(/C=N/c2n[nH]c(Sc3nc4ccc(C)cc4n4c(N)nnc34)n2)cc1OC value_observed="20 mm"
molecule_smiles=Cc1ccc2nc(N3CCCCC3)c3nnc(NC(=O)c4ccccc4)n3c2c1 value_observed="10 mm"
molecule_smiles=Cc1ccc2nc(N3CCN(c4ccccc4C)CC3)c3nnc(N)n3c2c1 value_observed="10 mm"
molecule_smiles=CCNC(=S)Nc1nnc2c(Cl)nc3ccc(C)cc3n12 value_observed="20 mm"
molecule_smiles=Cc1ccc2nc(Sc3nnc(-c4cccs4)n3-c3ccccc3)c3nnc(N)n3c2c1 value_observed="20 mm"
